# Assay Comment: ATG_PXRE_CIS: Attagene CIS-FACTORIAL HepG2 Assay for human Pregnane X Receptor Element (PXRE) (AID 2282957)
# Measurement Parameters: HepG2 Attagene CIS-FACTORIAL PXRE reporter, mRNA; actives raise or lower the signal
Activity calls are given as the source filed them. The calls were made as follows: active = hit-call score of the fitted dose curve at least 0.9, where 1 is the maximum; inactive = score below 0.9.
Possible outcomes: Yes for active, No for inactive

Compound	Classification
CC1CCC(C(C)(C)S)C(=O)C1 (stereo unspecified)	Yes
Cc1c(Cl)cccc1Cl	No
CCCCCCCCCCCC(=O)N(C)CC(=O)O	No
C=C(C)C(=O)OCCOC(=O)C(=C)C	No
CC=C(C)C(C)=O	Yes
C=CC(C)(O)CC/C=C(\C)CC (stereo unspecified)	Yes
CCCCCCCCCCCCc1ccc(O)cc1	Yes
CCC[Si](OC)(OC)OC	Yes
CCCCCCCCCCCCCc1ccccc1	No
c1ccc2cnccc2c1	Yes
CC(C)C(=O)OCCc1ccccc1	No
NC(=O)Nc1ccccc1	No
N#Cc1ccc(C(c2ccc(C#N)cc2)n2cncn2)cc1	No
CC1=CC(C)C(C=O)CC1 (stereo unspecified)	Yes
C=CC(=O)OCCCCCCCCCC	Yes
Cc1cc(C)c(C=O)c(C)c1	Yes

----------
# System Tested: Cellular tumor antigen p53 (Homo sapiens) (UniProt P04637)
# Sequence (P04637 whole entry, looked up): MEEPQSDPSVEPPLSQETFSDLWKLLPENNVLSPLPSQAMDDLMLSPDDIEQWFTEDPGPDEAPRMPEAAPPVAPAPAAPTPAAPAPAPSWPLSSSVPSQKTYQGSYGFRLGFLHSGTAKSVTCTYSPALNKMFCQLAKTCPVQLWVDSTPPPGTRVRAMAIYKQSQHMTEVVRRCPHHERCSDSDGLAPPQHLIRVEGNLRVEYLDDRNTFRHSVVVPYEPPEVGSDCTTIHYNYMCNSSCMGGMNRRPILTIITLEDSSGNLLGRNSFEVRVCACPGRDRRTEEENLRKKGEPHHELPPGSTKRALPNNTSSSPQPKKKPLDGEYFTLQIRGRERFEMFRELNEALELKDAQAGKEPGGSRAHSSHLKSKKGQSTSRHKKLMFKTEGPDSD
# Assay Comment: TOX21_p53_BLA_p5_ratio: Tox21 HCT-116 p53 Agonism Beta-lactamase Assay, Ratio, Phase 5 (AID 2283599)
Inconclusive results are not listed. The source made the active and inactive calls. Rule for the calls: active = hit-call score of the fitted dose curve at least 0.9, where 1 is the maximum; inconclusive = response in the unintended direction; inactive = score below 0.9.
Possible outcomes: T for active, F for inactive

Molecule	Classification
CCCC1CCCC(=O)O1 (stereo not drawn)	F
C=C(C)C(=O)OCCCCCCCCCCCC	F
Cc1c(C(=O)c2c[nH]n(C)c2=O)ccc(S(C)(=O)=O)c1C1=NOCC1	F
CC(C)[N+](C)(CCOC(=O)C1c2ccccc2Oc2ccccc21)C(C)C	F
Cc1noc(NS(=O)(=O)c2ccc(N)cc2)c1C	F
CC(C)OC(=O)c1ccccc1	F
CCCCCCCCCCCCCCCCCCOS(=O)(=O)O	F
N#Cc1ccc(C2CCCc3cncn32)cc1 (stereo not drawn)	F
O=C(OCc1ccccc1)c1ccc(O)cc1	F
C=C(C)OC(C)=O	F
Cc1cc(C)n(CO)n1	F
O=C1CCCCCCCCCCCN1	F
O=S(=O)(O)c1ccc(N=Nc2c(O)ccc3ccccc23)cc1	F
C=Cc1ccc(OC(C)=O)cc1	F
CCCCCCCCCCCCc1ccc(O)cc1	T
COC(=O)CC(C)CCC=C(C)C (stereo not drawn)	F
CC(=O)OC1CCCCC1C(C)(C)C (stereo not drawn)	F
CCC1COC(=O)O1 (stereo not drawn)	F
CCCCC(=O)O	F
CCC(C)C(=O)OCCc1ccccc1 (stereo not drawn)	F
NNS(=O)(=O)c1ccc(Oc2ccc(S(=O)(=O)NN)cc2)cc1	F
CCCCNS(=O)(=O)c1ccccc1	F
CCCCCCCC(=O)OCC(COC(=O)CCCCCCC)OC(=O)CCCCCCC	F
CC1(C)CCC[C@]2(C)[C@H]3CC(=O)O[C@]3(C)CC[C@@H]12	F
NC(=O)Nc1ccccc1	F
Nc1ccc(C(=O)OCCCOC(=O)c2ccc(N)cc2)cc1	F
C=CC(=O)OCCCCCCCCCC	F
O=C(Nc1ccccc1)c1cc(Cl)ccc1O	T
COC(C=C(C)CCC=C(C)C)OC	F
CC(=O)OC/C=C(/C)CCC=C(C)C	F
C=CC(C)(O)CC/C=C(\C)CC (stereo not drawn)	F
C1CNCCN1	F
CCCC/C=C/C=C\C=O	F
CC1CCC(C(C)(C)S)C(=O)C1 (stereo not drawn)	F
Cc1cccc(C(C)(C)C)c1O	F
O=C(Oc1ccccc1)c1ccccc1C(=O)Oc1ccccc1	F
CC(C)CC(=O)OCc1ccccc1	F
c1ccc2c(c1)[nH]c1ccccc12	F
CC(C)COC(=O)CC(C(=O)OCC(C)C)S(=O)(=O)O (stereo not drawn)	F
CCCCOCCOC(=O)COc1ccc(Cl)cc1Cl	F
CC(C)CCCCCOC(=O)CS	F
CC(CC(C)C)=NO	F
COc1cc(C)ccc1O	F

----------
# Assay Comment: ATG_CRE_CIS: Attagene CIS-FACTORIAL HepG2 Assay for human cAMP Responsive Element (CRE) binding protein 3 (AID 2282926)
# Measurement Parameters: HepG2 CRE cis-reporter, Attagene multiplexed mRNA; actives raise or lower the signal
Calls of active or inactive are those of the source. How the source made its calls: active means hit-call score of the fitted dose curve at least 0.9, where 1 is the maximum; inactive means score below 0.9.
Possible outcomes: TRUE for active, FALSE for inactive

Compound	Classification
CCCC(C)C(=O)OCC (stereo not drawn)	FALSE
O=C1CCCCC1C1CCCCC1 (stereo not drawn)	FALSE
Cc1noc(NS(=O)(=O)c2ccc(N)cc2)c1C	FALSE
Cc1ccc2c(c1)CCCN2	FALSE
O=C(OCc1ccccc1)c1ccc(O)cc1	FALSE
N#Cc1ccc(C(c2ccc(C#N)cc2)n2cncn2)cc1	FALSE
CCCCC(CC)COC(=O)/C=C/c1ccc(OC)cc1 (stereo not drawn)	FALSE
CC(=O)OCCc1ccccc1	FALSE
CC(=O)OC(C)c1ccccc1 (stereo not drawn)	FALSE
COC(=O)c1ccc(C(=O)OC)c(C(=O)OC)c1	FALSE
CC(CC=O)CC(C)(C)C (stereo not drawn)	FALSE
CC1(C)CCC[C@]2(C)[C@H]3CC(=O)O[C@]3(C)CC[C@@H]12	FALSE
CCCCCC(=O)OCC	FALSE
CC1C(C)(C)C2=C(C(=O)CCC2)C1(C)C (stereo not drawn)	FALSE
COC(=O)c1ccccc1C	FALSE
CC1CC(=O)CC(C)(C)C1 (stereo not drawn)	FALSE
CCCc1ccc(O)c(OC)c1	FALSE
O=c1c(O)c(-c2ccc(O)cc2O)oc2cc(O)cc(O)c12	FALSE
CC(C)c1ccc(O)c(C(C)C)c1	FALSE
C=CC(C)(O)CC/C=C(\C)CC (stereo not drawn)	FALSE
CCCCNS(=O)(=O)c1ccc(C)cc1	FALSE
O=C(O)C1CCC(C(=O)O)CC1 (stereo not drawn)	FALSE
c1ccc(Nc2cccc3ccccc23)cc1	TRUE
CC(CC(C)C)=NO	FALSE
CC(=O)CC(=O)Nc1ccccc1C	FALSE
Cc1c(Cl)cccc1Cl	FALSE
CCCCCCCCCCCCC	FALSE
Cc1ccc(C)c(OCCCC(C)(C)C(=O)O)c1	FALSE
CCCCCCCCCC(C)=O	FALSE
CCc1occc(=O)c1O	FALSE
CC(C)[N+](C)(CCOC(=O)C1c2ccccc2Oc2ccccc21)C(C)C	FALSE
N#Cc1ccc(C2CCCc3cncn32)cc1 (stereo not drawn)	FALSE
C/C=C/C=C/CCCCCCCO	FALSE
Cc1ccccc1CCO	FALSE
CC(=O)OC1CCCCC1	FALSE
CCOC(=O)C1=NN(c2ccc(Cl)cc2Cl)C(C)(C(=O)OCC)C1 (stereo not drawn)	FALSE
Fc1ccc(Br)cc1	FALSE
CCC(C)C(=O)OCCc1ccccc1 (stereo not drawn)	FALSE
CCCCCCOC(=O)CCCCC(=O)OCCCCCC	FALSE
CN(C)c1ccc2nc3ccc(=[N+](C)C)cc-3sc2c1	FALSE
COc1nccnc1CC(C)C	FALSE
CC=C(C)C=CC=C(C)C	FALSE
CC1=CP(=O)(c2ccccc2)CC1 (stereo not drawn)	FALSE

----------
# Assay Comment: ATG_EGR_CIS: Attagene CIS-FACTORIAL HepG2 Assay for human Early Growth Response 1 (EGR1) (AID 2282938)
# Measurement Parameters: HepG2 Attagene CIS-FACTORIAL EGR reporter mRNA; actives raise or lower the signal
Active and inactive are the calls of the source. The calls were made as follows: active = hit-call score of the fitted dose curve at least 0.9, where 1 is the maximum; inactive = score below 0.9.
Possible outcomes: Yes for active, No for inactive

Molecule	Classification
CCCCCCCCC(CO)CCCCCC (configuration not stated)	No
CCOC(=O)C1=NN(c2ccc(Cl)cc2Cl)C(C)(C(=O)OCC)C1 (configuration not stated)	No
CCCCCCOC(=O)CCCCC(=O)OCCCCCC	No
CN(C)Cc1cc(CN(C)C)c(O)c(CN(C)C)c1	No
CCOC(=O)/C=C\C(=O)OCC	No
CCc1occc(=O)c1O	No
C1CCSC1	No
COC(=O)c1ccccc1C	No
CCCCOCC(C)O (configuration not stated)	No
O=C(O)CCCC(=O)O	No
CC(C)(CO)COC(=O)C(C)(C)CO	No
Fc1ccc(Br)cc1	No
C=C(C)C(=O)OCC(O)COc1ccc(C(C)(C)c2ccc(OCC(O)COC(=O)C(=C)C)cc2)cc1 (configuration not stated)	Yes
COC(=O)C=Cc1ccccc1	No
CCCCC1C(=O)N(c2ccccc2)N(c2ccccc2)C1=O	No
CC1CC(=O)CC(C)(C)C1 (configuration not stated)	No
CCCCCC1=CCCC1=O	No
Cc1noc(NS(=O)(=O)c2ccc(N)cc2)c1C	No
CCCCC(C=O)CC (configuration not stated)	No
CCCCC(CC)COC(=O)/C=C/c1ccc(OC)cc1 (configuration not stated)	No
CCCCNS(=O)(=O)c1ccccc1	No
Nc1nc(N)nc(-c2ccccc2)n1	No
CC1OC(=O)C(C)OC1=O (configuration not stated)	No
CCCCOC(=O)CCC(C)=O	No
CCCCCCCCCCCC(=O)OCC	No
CC(=O)c1ccccc1O	No
Cc1cc(=O)[nH]c(=O)[nH]1	No
CCCC1CCCC(=O)O1 (configuration not stated)	No
CCCCc1ccc(Cl)cc1	No
CCOC(=O)CC(=O)c1ccccc1	No
CCCC/C=C/C=C\C=O	Yes
COc1ccc(-c2coc3cc(O)cc(O)c3c2=O)cc1	No
CCCC(CC)c1ccccc1 (configuration not stated)	No
CC(C=O)c1ccccc1 (configuration not stated)	No
O=c1c(O)c(-c2ccc(O)cc2O)oc2cc(O)cc(O)c12	No
CCCCCCCO	No
CC(C)(C)N	No
C=C(C)C(=O)OCCOC(=O)C(=C)C	No
CC(c1cc(C(C)(C)C)cc(C(C)(C)C)c1O)c1cc(C(C)(C)C)cc(C(C)(C)C)c1O	No
CCOC(=O)c1ccccc1C	No
CCOC(=O)C1=NOC(c2ccccc2)(c2ccccc2)C1	No
CC12CCC(CC1)C(C)(C)O2	No
C=CCCCCCCCCOC(C)=O	No
CC1=CP(=O)(c2ccccc2)CC1 (configuration not stated)	No
CC(C)c1ccc(O)c(C(C)C)c1	No
COc1cc(O)c(C(=O)c2ccccc2)cc1S(=O)(=O)O	No
c1ccc2sc(SSN3CCOCC3)nc2c1	Yes
Nc1ccnc(=O)[nH]1	No
C=CC(=O)OCCCCCCCCCC	No
CCOc1ccc(NC(N)=O)cc1	No
Oc1ccccc1Cc1ccccc1O	Yes
C=C(C)C1CC=C(C)C(OC(C)=O)C1 (configuration not stated)	No
